Experiment: Binding affinity to cereblon in human RV4:11 cells expressing wild type p53 assessed as reduction in cell growth inhibition measured after 4 days in presence of 30 uM lenalidomide
attribute measured: IC50 (µM)
Numbers only, in µM.

Value of IC50 reported for the molecule O=C1CCC(N2Cc3c(CCCCCNC(=O)[C@@H]4NC5(CCCCC5)[C@@]5(C(=O)Nc6cc(Cl)ccc65)[C@H]4c4cccc(Cl)c4F)cccc3C2=O)C(=O)N1 (stereo partly specified) is 0.211

====

Test: Binding affinity to cereblon in human MDA-MB-468 cells assessed as cell growth inhibition measured after 4 days
pIC50: −log10 of the molar value.
Could you please report measured pIC50 for the items listed next?

compound | attribute measured | reported
O=C1CCC(N2Cc3c(CCCCCNC(=O)c4ccc(NC(=O)[C@@H]5NC6(CCCCC6)[C@@]6(C(=O)Nc7cc(Cl)ccc76)[C@H]5c5cccc(Cl)c5F)cc4)cccc3C2=O)C(=O)N1 (some centres not stated) | pIC50 | < 5.00

Now look at this entry.
Value of pIC50 reported for the compound CNC(=O)[C@@H]1NC2(CCCCC2)[C@@]2(C(=O)Nc3cc(Cl)ccc32)[C@H]1c1cccc(Cl)c1F is < 5.00
